Data credit: patent US20100113517A1

# measurementNotes: Phase I ascending single oral dose study, pharmacokinetics
# Format: in vivo, healthy volunteers (human)
# studyConditions: male, human, plasma; single oral dose 75 mg; read-out: t1/2 (converted)
# Protocol: This example describes a randomized, double blind, placebo controlled Phase I study of ascending single oral dose of DGJ to evaluate the safety, tolerability and pharmacokinetics of DGJ in healthy volunteers. Study Design and Duration. […] Dose escalation to the next dose level (i.e., next group) proceeded following review of safety and tolerability of the previous group(s). Subjects were housed in the treatment facility from 14 hours prior to dosing until 24 hours after dosing. […]
endpoint: half-life (h)
Numbers only; they are read as h.

Entry OCC1NCC(O)C(O)C1O (stereo not shown) : reported half-life = ?
4.05

----------
# measurementNotes: Phase I ascending single oral dose study, pharmacokinetics
# Type: in vivo, healthy volunteers (human)
# studyConditions: male, human, plasma; single oral dose 25 mg; read-out: t1/2 (converted)
endpoint: half-life (h)
Numbers only; they are read as h.

Entry OCC1NCC(O)C(O)C1O (stereo not shown) : reported half-life = ?
3.04

----------
# measurementNotes: Phase I ascending single oral dose study, pharmacokinetics
# Assay type: in vivo, healthy volunteers (human)
# studyConditions: male, human; single oral dose 25 mg, plasma, geometric mean
endpoint: Cmax (ng/mL)
Numbers only; they are read as ng/mL.

Entry OCC1NCC(O)C(O)C1O (stereo not shown) : reported Cmax = ?
201

----------
# measurementNotes: Phase I ascending single oral dose study, pharmacokinetics
# Assay type: in vivo, healthy volunteers (human)
# studyConditions: male, human; single oral dose 25 mg, plasma, geometric mean
endpoint: AUC(0-t)
# answer = value followed by unit

Entry OCC1NCC(O)C(O)C1O (stereo not shown) : reported AUC(0-t) = ?
1090 ng·h/mL

----------
# measurementNotes: Phase I ascending single oral dose study, pharmacokinetics
# Type: in vivo, healthy volunteers (human)
# studyConditions: male, human, plasma; single oral dose 25 mg
endpoint: Tmax (h)
Numbers only; they are read as h.

Entry OCC1NCC(O)C(O)C1O (stereo not shown) [DGJ, 1-deoxygalactonojirimycin] : reported Tmax = ?
3

----------
# measurementNotes: Phase I ascending single oral dose study, pharmacokinetics
# Assay type: in vivo, healthy volunteers (human)
# studyConditions: male, human; single oral dose 675 mg, plasma, geometric mean
endpoint: AUC(0-inf)

Entry OCC1NCC(O)C(O)C1O (stereo not shown) : reported AUC(0-inf) = ?
35.7 µg·h/mL

----------
# measurementNotes: Phase Ib twice daily oral dose study, pharmacokinetics
# Format: in vivo, healthy volunteers (human)
# studyConditions: human, plasma, oral, 50 mg, 50 mg bid, Day 7
endpoint: Tmax (h)
Numbers only; they are read as h.

Entry OCC1NCC(O)C(O)C1O (stereo not shown) : reported Tmax = ?
2.5

----------
# measurementNotes: Phase I ascending single oral dose study, pharmacokinetics
# Type: in vivo, healthy volunteers (human)
# studyConditions: male, human, plasma; single oral dose 675 mg; read-out: t1/2 (converted)
# Experimental: This example describes a randomized, double blind, placebo controlled Phase I study of ascending single oral dose of DGJ to evaluate the safety, tolerability and pharmacokinetics of DGJ in healthy volunteers. Study Design and Duration. […] Dose escalation to the next dose level (i.e., next group) proceeded following review of safety and tolerability of the previous group(s). Subjects were housed in the treatment facility from 14 hours prior to dosing until 24 hours after dosing. […]
endpoint: half-life (h)
Numbers only; they are read as h.

Entry OCC1NCC(O)C(O)C1O (stereo not shown) : reported half-life = ?
4.19
